Experiment: Urine elimination studies
Assay type: in vivo, Sprague-Dawley rats
Test conditions: rat, 1 mL of 2 mM in PBS by tail vein injection, mean ± SEM (n)
Marks after values point to notes of the source that are not given here.
Readout: Percent found in Urine (6 hrs)

Reference set, count: 6
# Compound, Percent found in Urine (6 hrs)
measured = [
    ("COCCOCCOCCOCCOCCOCCOCCOCCCNc1nc(C(=O)NCCOCCOCCOCCOCCOCCOCCOCCOCCOCCOCCOCCOCCOCCOCCOCCOCCOCCOCCOCCOCCOCCOCCOCCOC)c(NCCCOCCOCCOCCOCCOCCOCCOCCOC)nc1C(=O)NCCOCCOCCOCCOCCOCCOCCOCCOCCOCCOCCOCCOCCOCCOCCOCCOCCOCCOCCOCCOCCOCCOCCOCCOC", "92 ± 4 (3) Percent"),
    ("COCCOCCOCCOCCCNc1nc(C(=O)NCCOCCOCCOCCOCCOCCOCCOCCOCCOCCOCCOCCOCCOCCOCCOCCOCCOCCOCCOCCOCCOCCOCCOCCOC)c(NCCCOCCOCCOCCOC)nc1C(=O)NCCOCCOCCOCCOCCOCCOCCOCCOCCOCCOCCOCCOCCOCCOCCOCCOCCOCCOCCOCCOCCOCCOCCOCCOC", "97 ± 2 (3) Percent"),
    ("COCCOCCOCCOCCCNc1nc(C(=O)NCC(O)CO)c(NCCCOCCOCCOCCOC)nc1C(=O)NCC(O)CO (centres unmarked)", "29 ± 2 (3) Percent"),
    ("COCCOCCOCCOCCCNc1nc(C(=O)NCCOCCOCCOCCOCCOCCOCCOCCOCCOCCOCCOCCOC)c(NCCCOCCOCCOCCOC)nc1C(=O)NCCOCCOCCOCCOCCOCCOCCOCCOCCOCCOCCOCCOC", "86 ± 1 (3) Percent"),
    ("COCCOCCOCCOCCOCCOCCOCCOCCCNc1nc(C(=O)N[C@H](CO)C(=O)O)c(NCCCOCCOCCOCCOCCOCCOCCOCCOC)nc1C(=O)N[C@H](CO)C(=O)O", "61 ± 7 (3) Percent"),
    ("COCCOCCOCCOCCOCCOCCOCCOCCOCCOCCOCCOCCCNc1nc(C(=O)NCCOCCOCCOCCOCCOCCOCCOCCOCCOCCOCCOCCOCCOCCOCCOCCOCCOCCOCCOCCOCCOCCOCCOCCOC)c(NCCCOCCOCCOCCOCCOCCOCCOCCOCCOCCOCCOCCOC)nc1C(=O)NCCOCCOCCOCCOCCOCCOCCOCCOCCOCCOCCOCCOCCOCCOCCOCCOCCOCCOCCOCCOCCOCCOCCOCCOC", "89 ± 2 (3) Percent"),
]

GET /values?readout=Percent found in Urine (6 hrs)&item= COCCOCCOCCOCCOCCOCCOCCOCCOCCOCCOCCOCCCNc1nc(C(=O)NCCOCCOCCOCCOCCOCCOCCOCCOCCOCCOCCOCCOC)c(NCCCOCCOCCOCCOCCOCCOCCOCCOCCOCCOCCOCCOC)nc1C(=O)NCCOCCOCCOCCOCCOCCOCCOCCOCCOCCOCCOCCOC
97 ± 0.4 (3)^b Percent

GET /values?readout=Percent found in Urine (6 hrs)&item= COCCOCCOCCOCCOCCOCCOCCOCCOCCOCCOCCOCCOCCOCCOCCOCCOCCOCCOCCOCCOCCOCCOCCOCCCNc1nc(C(=O)NCCOCCOCCOCCOCCOCCOCCOCCOCCOCCOCCOCCOCCOCCOCCOCCOCCOCCOCCOCCOCCOCCOCCOCCOC)c(NCCCOCCOCCOCCOCCOCCOCCOCCOCCOCCOCCOCCOCCOCCOCCOCCOCCOCCOCCOCCOCCOCCOCCOCCOC)nc1C(=O)NCCOCCOCCOCCOCCOCCOCCOCCOCCOCCOCCOCCOCCOCCOCCOCCOCCOCCOCCOCCOCCOCCOCCOCCOC
86 ± 7 (3) Percent
